Numbers sourced from PubChem BioAssay (NCI).

- method: NCI Yeast Anticancer Drug Screen. Data for the mlh1 rad18 strain (AID 175)
- condition set: S. cerevisiae mlh1 rad18 strain growth inhibition; at 50.0 µM; active compounds read high
Compounds without any hit were thinned out: in the full panel of roughly 79,000, 15% have a hit.
Assignment: determine reported growth inhibition for the given compounds.
Please reply with the bare figure in % and do not write the unit itself.

Problem: Fill in the blank: the reported growth inhibition of "Cc1ncc(CSCC(=O)O)c(N)n1" is ____.
Solution: -8.55

Problem: Could you do the same for "CCOC(CSc1cc(C)c2ccccc2n1)OCC" , please?
Solution: -15.2

Problem: Could you do the same for "Cc1cc(C)c2ccc(=O)[nH]c2n1" , please?
Solution: 8.2

Problem: Could you do the same for Cc1ccc(N2C(=O)ON(c3ccccc3)C2c2ccccc2)cc1 (stereo unspecified) , please?
Solution: -15.9

Problem: Could you do the same for COc1ccc(/C=c2\sc3n(c2=O)C(N)=C(C#N)C(c2ccc(OC)cc2)C=3c2nc3ccccc3[nH]2)cc1 (stereo unspecified) , please?
Solution: 11.3

Problem: Could you do the same for "C/C(=N\NC(=O)CC(=O)N(C(=O)c1ccc(Cl)cc1)c1ccc(C)cc1)c1ccccc1O" , please?
Solution: -29.6
